- System: MRSA-MW2
- PROTOCOL DESCRIPTION: Checkerboard synergy assay (FIC index)
- Type: cell-based, Staphylococcus aureus
- CONDITION DESCRIPTION: with Erythromycin; synergy FIC ≤ 0.5
Reported Fractional Inhibitory Concentration (FIC) Index values for a set of molecules

Worked examples, 3 molecules total:
CCCc1c(-c2ccc(O)cc2)nn(-c2ccc(O)cc2)c1-c1ccc(O)cc1    0.75
CC(C)[C@H]1c2ccc(F)cc2CC[C@@]1(CCN(C)CCCc1nc2ccccc2[nH]1)OC(=O)C1CC1.Cl.Cl    1.0
CC(C)c1onc(-c2c(Cl)cccc2Cl)c1COc1ccc(C=Cc2cccc(C(=O)O)c2)c(Cl)c1    1.0

API: the following record is the query input.
Quick check: Fractional Inhibitory Concentration (FIC) Index of Cc1cc(I)ccc1Nc1c(C(=O)NOCC2CC2)cc(F)c(F)c1F ?
0.5
